The origin of these recorded values is patent US20020137929A1.

Record form. Attribute: herbicidal effect rating, CYPIR. Fill in for each entry.
Test system: CYPIR (Rice Flatsedge)
assay notes: Preemergence weed control under flooded paddy conditions
Type: in vivo, Cyperus iria
protocol conditions: 0.2500 kg/ha, rated 3-4 weeks after treatment
Lab note: record just the number, no unit beside it.

Qu. Identify herbicidal effect rating, CYPIR associated with the compound "Cc1ccc(CN2C(=O)CSC2=Nc2cc(-n3c(=O)cc(C(F)(F)F)n(C)c3=O)c(F)cc2Cl)cc1Cl"
Ans. 4.0

Qu. Identify herbicidal effect rating, CYPIR associated with the compound "C=C1SC(=Nc2cc(-n3c(=O)cc(C(F)(F)F)n(C)c3=O)c(F)cc2Cl)N(CC(=O)OCC)C1=O"
Ans. 6.0

Qu. Identify herbicidal effect rating, CYPIR associated with the compound "Cn1c(C(F)(F)F)cc(=O)n(-c2cc(N=C3SCC(=O)N3CC(=O)OCC3CCCCC3)c(Cl)cc2F)c1=O"
Ans. 9.0

Qu. Identify herbicidal effect rating, CYPIR associated with the compound CCOC(=O)CN1C(=O)C(OC)SC1=Nc1cc(-n2c(=O)cc(C(F)(F)F)n(C)c2=O)c(F)cc1Cl (centres unmarked)
Ans. 9.0

Qu. Identify herbicidal effect rating, CYPIR associated with the compound "Cn1c(C(F)(F)F)cc(=O)n(-c2cc(N=C3SCC(=O)N3Cc3cccnc3)c(Cl)cc2F)c1=O"
Ans. 3.0
